- assay_system: MLL1-WDR5 protein-protein interaction (Homo sapiens (Human))
- test_name: WDR5 TR-FRET assay (MLL1-WDR5 PPI inhibition)
- Type: binding
- experimental_setup: 5 nM WDR5 protein, 10 nM peptide, read-out: IC50 (nM), MLL1-WDR5 PPI inhibitory activity
One threshold, 2000 nM, splits the recorded IC50 values: lower ones are 1 (yes), equal or higher ones are 0 (no).

Q. Problem: For the compound CN1CCN(c2ccc(-n3cc(C(=O)NCCCN4CCOCC4)nn3)cc2NC(=O)c2cnc(C(F)(F)F)cc2Cl)CC1 [Example 20] , is IC50 under 2000 nM?
A. 0 (no)

---

Provide the recorded IC50 for the entries that follow.
- assay_system: MLL1-WDR5 protein-protein interaction (Homo sapiens (Human))
- test_name: WDR5 TR-FRET assay (MLL1-WDR5 PPI inhibition)
- Assay type: binding
- experimental_setup: 5 nM WDR5 protein, 10 nM peptide, read-out: IC50 (nM), MLL1-WDR5 PPI inhibitory activity

[
  {
    "smiles_string": "CN1CCN(c2ccc(-n3cc(C(=O)NCCCN4CCOCC4)nn3)cc2NC(=O)c2ncc(Cl)nc2Cl)CC1",
    "test_value": "> 10000 nM"
  },
  {
    "smiles_string": "COc1ccc(C(=O)Nc2cc(-n3cc(C(=O)NCCCN4CCOCC4)nn3)ccc2N2CCN(C)CC2)c(C(F)(F)F)n1",
    "test_value": "> 10000 nM"
  },
  {
    "smiles_string": "CN1CCN(c2ccc(-n3cc(C(=O)NCCCN4CCOCC4)nn3)cc2NC(=O)c2cnc(F)cc2C(F)(F)F)CC1",
    "test_value": "4230 nM"
  },
  {
    "smiles_string": "CN1CCN(c2ccc(-n3cc(C(=O)NCCCN4CCOCC4)nn3)cc2NC(=O)c2cnc(S(C)(=O)=O)cc2C(F)(F)F)CC1",
    "test_value": "> 10000 nM"
  },
  {
    "smiles_string": "Cc1cc(Cl)c(C(=O)Nc2cc(-n3cc(C(=O)NCCCN4CCOCC4)nn3)ccc2N2CCN(C)CC2)cc1[N+](=O)[O-]",
    "test_value": "> 10000 nM"
  }
]

Quick batch: IC50 for everything below.
1. Cc1cc(Cl)c(C(=O)Nc2cc(-n3cc(C(=O)NCCCN4CCOCC4)nn3)ccc2N2CCN(C)CC2)cc1N
2. C[C@@H]1CN(c2cc(F)c(-n3cc(C(=O)NCCCN4CCOCC4)nn3)cc2NC(=O)c2cnc(Cl)cc2C(F)(F)F)C[C@H](C)N1C

A.
1. 4370 nM
2. 7270 nM

Please go through the list and note IC50 for each compound.
1. CN1CCN(c2ccc(-n3cc(C(=O)NCCCN4CCOCC4)nn3)cc2NC(=O)c2nnc(Cl)cc2N)CC1
2. CCOc1ncc(C(=O)Nc2cc(-n3cc(C(=O)NCCCN4CCOCC4)nn3)ccc2N2CCN(C)CC2)c(C(F)(F)F)n1
3. COc1nc(SC)ncc1C(=O)Nc1cc(-n2cc(C(=O)NCCCN3CCOCC3)nn2)ccc1N1CCN(C)CC1
4. C[C@H]1CN(c2ccc(-n3cc(C(=O)NCCCN4CCOCC4)nn3)cc2NC(=O)c2cnc(Cl)cc2C(F)(F)F)CCN1C
5. Cc1c(Cl)ncc(C(=O)Nc2cc(-n3cc(C(=O)NCCCN4CCOCC4)nn3)c(F)cc2N2C[C@@H](C)N(C)[C@@H](C)C2)c1Cl
6. CSc1ncc(C(=O)Nc2cc(-n3cc(C(=O)NCCCN4CCOCC4)nn3)ccc2N2CCN(C)CC2)c(C(F)(F)F)n1

A.
> 10000 nM
> 10000 nM
> 10000 nM
> 10000 nM
> 10000 nM
> 10000 nM

Q. For CN1CCN(c2ccc(-n3cc(C(=O)NCCCN4CCOCC4)nn3)cc2NC(=O)c2ccc(C#N)nc2C(F)(F)F)CC1 , what is its reported IC50?
A. 1150 nM
